These data points were gathered from ChEMBL document CHEMBL1132548.

Answer each item with its documented IC50.
# Tested system: Mu-type opioid receptor (Rattus norvegicus)
# Sequence (P33535 whole entry): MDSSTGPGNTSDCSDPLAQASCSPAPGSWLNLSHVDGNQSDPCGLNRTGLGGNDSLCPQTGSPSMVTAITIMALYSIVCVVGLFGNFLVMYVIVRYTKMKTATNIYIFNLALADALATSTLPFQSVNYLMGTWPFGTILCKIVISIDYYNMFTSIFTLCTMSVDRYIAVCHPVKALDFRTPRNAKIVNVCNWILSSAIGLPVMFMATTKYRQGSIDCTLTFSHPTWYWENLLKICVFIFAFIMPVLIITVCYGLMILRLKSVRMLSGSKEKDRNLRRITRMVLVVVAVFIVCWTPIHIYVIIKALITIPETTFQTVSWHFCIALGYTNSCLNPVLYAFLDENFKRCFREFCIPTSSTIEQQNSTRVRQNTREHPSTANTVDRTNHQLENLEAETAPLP
# Method: In vitro inhibition of [3H]DAMGO (Tyr-D-Ala-Gly-(Me)-Phe-Gly-ol) binding to Opioid receptor mu 1 using rat brain membranes
Report only the number, with the unit µM understood.

Prompt: Form field: IC50 recorded for CC(C)(C)c1ccc(C(c2cccc(O)c2)N2CCN(Cc3ccccc3)C[C@@H]2CO)cc1 (stereo not given in full) with Mu-type opioid receptor (Rattus norvegicus) (enter value)
Completion: 7.98

Prompt: Form field: IC50 recorded for CC(C)(C)c1ccc(C(c2cccc(O)c2)C2CCN(Cc3ccccc3)CC2)cc1 (stereo not given) with Mu-type opioid receptor (Rattus norvegicus) (enter value)
Completion: 4.3

Prompt: Form field: IC50 recorded for O=C(OCc1ccc(O)cc1)N1CSC(=S)N(Cc2ccccc2)C1 with Mu-type opioid receptor (Rattus norvegicus) (enter value)
Completion: 38.3

Prompt: Form field: IC50 recorded for CC(C)(C)c1ccc(C(c2cccc(O)c2)N2CCN(Cc3ccccc3)C[C@@H]2COCc2ccccc2)cc1 (stereo not given in full) with Mu-type opioid receptor (Rattus norvegicus) (enter value)
Completion: 26
